- Assay Method Text: qHTS assay to test for compound auto fluorescence at 460 nm (blue) in HepG2 cell free culture (AID 720685)
- Assay Context: Cell-free culture medium, blue autofluorescence 405/460 nm; series mostly up to 46 µM
Activity calls are given as the source filed them. Calls follow the shape of the dose curve; as a rule, active = well fitted curve in the direction sought with a large enough effect in the repeat runs; inconclusive = weak or mixed curves; inactive = flat fitted curve, though single readings scatter.

Given Smiles | outcome
CC[C@@H](O)C(C[C@@H](C)N(C)C)(c1ccccc1)c1ccccc1 | inactive
CN1CCN=C(c2ccccc2)c2cc(Cl)ccc21 | inactive
C#C[C@]1(OC(=O)CCCCCC)CC[C@H]2[C@@H]3CCC4=CC(=O)CC[C@@H]4[C@H]3CC[C@@]21C | inactive

----------
- Target Or Test System: Acetylcholinesterase (Homo sapiens) (UniProt P22303)
- Sequence (P22303 whole entry, looked up): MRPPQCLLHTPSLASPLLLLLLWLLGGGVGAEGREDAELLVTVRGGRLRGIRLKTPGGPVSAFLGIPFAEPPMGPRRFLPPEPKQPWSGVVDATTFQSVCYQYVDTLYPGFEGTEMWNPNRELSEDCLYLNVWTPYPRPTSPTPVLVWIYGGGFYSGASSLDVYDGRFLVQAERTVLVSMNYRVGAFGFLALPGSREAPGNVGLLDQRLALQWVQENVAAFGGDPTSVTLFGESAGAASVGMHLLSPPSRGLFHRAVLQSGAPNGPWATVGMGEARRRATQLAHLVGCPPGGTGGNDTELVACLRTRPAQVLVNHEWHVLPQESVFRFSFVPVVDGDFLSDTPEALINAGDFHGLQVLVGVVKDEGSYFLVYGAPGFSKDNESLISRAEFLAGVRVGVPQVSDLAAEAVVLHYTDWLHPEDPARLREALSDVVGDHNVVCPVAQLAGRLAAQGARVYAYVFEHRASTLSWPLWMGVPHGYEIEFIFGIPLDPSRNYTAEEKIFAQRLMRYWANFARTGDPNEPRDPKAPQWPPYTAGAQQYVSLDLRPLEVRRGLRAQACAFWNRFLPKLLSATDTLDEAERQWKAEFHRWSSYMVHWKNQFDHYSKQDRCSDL
- Assay Method Text: Acetylcholinesterase (AChE) small molecule antagonists: fluorescence cell-based qHTS assay (AID 1347398); also: nearly all actives have a fitted effect of over 50% in size
- Assay Context: SH-SY5Y cells; AChE activity; series mostly up to 115 µM
Records with an inconclusive call do not appear. The source made the active and inactive calls. Calls follow the shape of the full dose curve.
# valid calls are 1 = active, 0 = inactive; nothing else

See these solved cases before continuing.
Molecule | Target Or Test System | Cat
C[C@]12CC[C@H]3C(=CCc4cc(O)ccc43)[C@@H]1CCC2=O | Acetylcholinesterase (Homo sapiens) (UniProt P22303) | 0
CC(=O)OCC(=O)Nc1cc(C#N)cc(NC(=O)COC(C)=O)c1Cl | Acetylcholinesterase (Homo sapiens) (UniProt P22303) | 0
CO[Si](C)(OC)OC | Acetylcholinesterase (Homo sapiens) (UniProt P22303) | 0
C=CCOc1c(Br)cc(Br)cc1Br | Acetylcholinesterase (Homo sapiens) (UniProt P22303) | 0
CCCCCCCCCCCCCCCC(=O)OC/C=C(C)/C=C/C=C(C)/C=C/C1=C(C)CCCC1(C)C | Acetylcholinesterase (Homo sapiens) (UniProt P22303) | 0
O=c1c(-c2ccccc2)c1-c1ccccc1 | Acetylcholinesterase (Homo sapiens) (UniProt P22303) | 0
Clc1cc(Cl)c2c(c1)N=C1CCCCCN1C2 | Acetylcholinesterase (Homo sapiens) (UniProt P22303) | 1
CCCCCCCCN(C)CCCCCCCC | Acetylcholinesterase (Homo sapiens) (UniProt P22303) | 0
NC(=O)NS(=O)(=O)c1ccc(Cl)cc1 | Acetylcholinesterase (Homo sapiens) (UniProt P22303) | 0
O=C(/C=C/c1ccccc1)OC/C=C/c1ccccc1 | Acetylcholinesterase (Homo sapiens) (UniProt P22303) | 0

Please let me know the test result on file for CCCCC/C=C/CC1CC(=O)OC1=O (configuration not stated) .
0

Next record, please: CCC(O)CO (configuration not stated)
0

What about this molecule? NCCCCCCNCCCCCCN
1

Next up: CC(C)[N+](C)(C)CC(O)COc1cccc2ccccc12 (configuration not stated)
0

Try this molecule too: Cc1cccc(C)c1NC(=O)CN(CC(=O)O)CC(=O)O
0

Another molecule to look at: CCOC(=O)c1ccc(N(C)C)cc1
0

Quick one: CCCCCCCC(=O)N(C)C
0

Then this molecule: CCCC(C)C=O (configuration not stated)
0

Input CCc1cccc(C)c1N(C(=O)C(=O)O)C(C)COC (configuration not stated)
0

Next entry: O=C(O)c1cccc(C(F)(F)F)c1
0

----------
- Target Or Test System: Acetylcholinesterase (Homo sapiens)
- Assay Method Text: Acetylcholinesterase (AChE) small molecule antagonists: enzyme-based qHTS assay with human liver microsomes (AID 1347399); also: nearly all actives have a fitted effect of over 60% in size
- Assay Context: qHTS inhibition; series mostly up to 115 µM
Calls of active or inactive are those of the source. The call rests on the fitted dose curve.
Measurement Kind: outcome

Solved entries:
Molecule | outcome
C[C@@]12CCC[C@H]1[C@@H]1CC[C@H]3C[C@@H](O)CC[C@]3(C)[C@H]1CC2 | inactive
CC1=CCC2C(C1)C2(C)C (stereo unspecified) | inactive
COc1ccc2c(c1OC)C(=O)O[C@@H]2[C@H]1c2c(cc3c(c2OC)OCO3)CCN1C | inactive
CCCCCCCCc1ccc(Nc2ccc(CCCCCCCC)cc2)cc1 | inactive

Notebook: pull reported outcome for Acetylcholinesterase (Homo sapiens), entry O=C(O)CO
inactive

Lookup C/C(=C\C(C)CC(C)CC(C)C)C1CC(=O)OC1=O (stereo unspecified)
inactive

----------
- Assay Method Text: qHTS assay to identify small molecule antagonists of the androgen receptor (AR) signaling pathway - cell viability counter screen (AID 743033; also: nearly all actives have a fitted effect of over 45% in size)
- Assay Context: AR-bla HEK293 viability, CellTiter-Glo luminescence, 16 h; series mostly up to 58.5 µM
Records with an inconclusive call do not appear. Calls of active or inactive are those of the source. The call rests on the fitted dose curve; in most records, active means well fitted cell-killing curve with a large enough effect in the repeat runs; inconclusive means weak or mixed curves; inactive means no such curve, though single readings can be large or run the other way.
Log the outcome using a class from active, inactive

Any idea what this test logged for C[C@]12CC[C@H]3[C@@H](CCC4=CC(=O)CC[C@@]43C)[C@@H]1CC[C@@H]2OC(=O)CCc1ccccc1 ?
inactive

# iterate: CN1CCN=C(c2ccccc2)c2cc(Cl)ccc21
inactive

Also CC(=O)O[C@H]1C[C@H](O[C@H]2[C@@H](O)C[C@H](O[C@H]3[C@@H](O)C[C@H](OC4CC[C@@]5(C)C(CC[C@@H]6[C@@H]5CC[C@]5(C)[C@@H](C7=CC(=O)OC7)[C@@H](O)C[C@]65O)C4)O[C@@H]3C)O[C@@H]2C)O[C@H](C)[C@H]1O[C@@H]1O[C@H](CO)[C@@H](O)[C@H](O)[C@H]1O (some centres undefined) ?
active

What about CC[C@@H](O)C(C[C@@H](C)N(C)C)(c1ccccc1)c1ccccc1 ?
inactive

----------
- Target Or Test System: Acetylcholinesterase (Homo sapiens) (UniProt P22303)
- Assay Method Text: Acetylcholinesterase (AChE) small molecule antagonists: fluorescence cell-based qHTS assay (AID 1347398); also: nearly all actives have a fitted effect of over 50% in size
- Assay Context: SH-SY5Y cells; AChE activity; series mostly up to 115 µM
Records with an inconclusive call do not appear. Activity calls are given as the source filed them. Calls follow the shape of the full dose curve.
Mark one answer only. Choices: active, inactive

Completed entries (count: 6):
Compound | Cat
CCCCCCCCCCCC(=O)NCCCN(C)C | active
Cc1onc(-c2ccccc2)c1-c1ccc(S(N)(=O)=O)cc1 | inactive
CCCCC/C=C\CCC=O | inactive
O=C(C1CCCCC1)N1CC(=O)N2CCCc3ccccc3C2C1 (centres undefined) | inactive
CC[N+]1(CC)CCC(=C(c2ccccc2)c2ccccc2)C1C (centres undefined) | inactive
Cc1cscn1 | inactive

Query: recorded result category for COC(=O)CC#N in this test
inactive

Another compound to check: O=C1OC(OC(=O)c2cccnc2Nc2cccc(C(F)(F)F)c2)c2ccccc21 (centres undefined)
inactive

// next record NC(=O)N1c2ccccc2CC(=O)c2ccccc21
inactive

Record: Cc1c(N=C=O)cccc1N=C=O
inactive

Please answer likewise for O=C(O)c1c(O)c(-c2ccccc2)nc2ccccc12
inactive

Record: CC(C)CCCCCCCCCCCCCCC(=O)O
inactive

Input CCCCN
inactive

Lookup CC(C)CCC(=O)CCC(C)C
inactive

----------
- Assay Method Text: qHTS assay for small molecules that induce genotoxicity in human embryonic kidney cells expressing luciferase-tagged ATAD5 - cell viability (AID 651634); also: nearly all actives have a fitted effect of over 25% in size; also: potency is read from the fitted curve at half-maximal effect
- Assay Context: HEK293T ATAD5-luc cells viability, CellTiter-Fluor, 15.5 h; series mostly up to 83.3 µM
Results filed as inconclusive are left out. The source made the active and inactive calls. The call rests on the fitted dose curve.
Measurement Kind: Potency

These solved cases illustrate the format of a correct answer.
Compound | Potency
C[C@]12CC[C@H]3[C@@H](CCC4=CC(=O)CC[C@@]43C)[C@@H]1CC[C@@H]2OC(=O)CCc1ccccc1 | inactive
Cc1ccc2c(c1)[C@]13CCCC[C@@H]1[C@H](C2)N(C)CC3 | inactive
COc1cc(C[C@H](C)N)c(OC)cc1Br | inactive
CN1CCN=C(c2ccccc2)c2cc(Cl)ccc21 | inactive
CN1C2CCC1CC(OC(c1ccccc1)c1ccc(Cl)cc1)C2 (stereo not drawn) | 26.6 µM (active)
CC(=O)O[C@H]1C[C@H](O[C@H]2[C@@H](O)C[C@H](O[C@H]3[C@@H](O)C[C@H](OC4CC[C@@]5(C)C(CC[C@@H]6[C@@H]5CC[C@]5(C)[C@@H](C7=CC(=O)OC7)[C@@H](O)C[C@]65O)C4)O[C@@H]3C)O[C@@H]2C)O[C@H](C)[C@H]1O[C@@H]1O[C@H](CO)[C@@H](O)[C@H](O)[C@H]1O (stereo partly drawn) | 0.75 µM (active)
CCC(=O)O[C@](Cc1ccccc1)(c1ccccc1)[C@H](C)CN(C)C | inactive

Tell me the measured Potency of CNC(C)[C@@H]1CC[C@@H](N)[C@@H](O[C@H]2[C@H](O)[C@@H](O[C@H]3OC[C@](C)(O)[C@H](NC)[C@H]3O)[C@H](N)C[C@@H]2N)O1 (stereo partly drawn) , please.
inactive

----------
- Target Or Test System: Acetylcholinesterase (Homo sapiens) (UniProt P22303)
- Assay Method Text: Acetylcholinesterase (AChE) small molecule antagonists: colormetric cell-based qHTS assay (AID 1347395); also: nearly all actives have a fitted effect of over 30% in size
- Assay Context: SH-SY5Y cells AChE activity, colorimetric (Ellman); series mostly up to 115 µM
Inconclusive results are not listed. The source made the active and inactive calls. Calls come from the whole dose curve.
Measurement Kind: outcome

Some entries whose results are on file:
Given Smiles | Target Or Test System | outcome
CCc1ccc(C)nc1 | Acetylcholinesterase (Homo sapiens) (UniProt P22303) | inactive
O=C(/N=N/C(=O)OCc1ccccc1)OCc1ccccc1 | Acetylcholinesterase (Homo sapiens) (UniProt P22303) | inactive
COc1ccc2c(c1)C(=O)N(CCc1ccc(S(=O)(=O)NC(=O)NC3CCCCC3)cc1)C(=O)C2(C)C | Acetylcholinesterase (Homo sapiens) (UniProt P22303) | inactive
C/C=C(/C(=C/C)c1ccc(OC(C)=O)cc1)c1ccc(OC(C)=O)cc1 | Acetylcholinesterase (Homo sapiens) (UniProt P22303) | inactive
O=C(Nc1cccc([N+](=O)[O-])c1)c1cc2ccccc2cc1O | Acetylcholinesterase (Homo sapiens) (UniProt P22303) | inactive

Now examine the next entry.
# input molecule: C#CCOC(=O)[C@@H](C)Oc1ccc(Oc2ncc(Cl)cc2F)cc1 ; wanted: its outcome
inactive
